Each entry below lists one item and its recorded inhibition at 1 µM value.
Target: A₂ receptor (Rattus norvegicus)
Construct: from tissue; host or cells: rat corpus striatum membrane preparation
Sequence (P30543 whole entry): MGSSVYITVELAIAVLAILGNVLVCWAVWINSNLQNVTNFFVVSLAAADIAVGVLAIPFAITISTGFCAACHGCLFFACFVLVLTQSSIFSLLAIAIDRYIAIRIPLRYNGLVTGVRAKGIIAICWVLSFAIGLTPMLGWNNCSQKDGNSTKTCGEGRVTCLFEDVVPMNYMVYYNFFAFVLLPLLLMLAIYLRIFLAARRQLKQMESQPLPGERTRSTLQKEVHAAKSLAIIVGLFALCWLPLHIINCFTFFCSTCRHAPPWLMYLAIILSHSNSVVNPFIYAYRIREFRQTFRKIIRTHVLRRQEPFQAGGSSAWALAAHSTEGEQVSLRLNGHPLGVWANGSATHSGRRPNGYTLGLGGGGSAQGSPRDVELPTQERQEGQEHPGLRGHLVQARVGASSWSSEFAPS
Test: Adenosine A₂ receptor binding test (³H-NECA binding)
Settings: read-out: Inhibition (%) A₂ Receptor

Check out these entries, answers already filled in.
CCn1c(=O)c2[nH]c(/C=C/c3ccc(OC)c(OC)c3)nc2n(CC)c1=O :: 86%
Cn1c(=O)c2c(nc(/C=C/c3ccc4c(c3)OCO4)n2C)n(C)c1=O [Compound 24, (E)-8-(3,4-Methylenedioxystyryl)caffeine] :: 57%
CCn1c(=O)c2c(nc(/C=C/c3cccc(OC)c3OC)n2C)n(CC)c1=O :: 84%
CCn1c(=O)c2c(nc(/C=C/c3ccc(OC)c(OC)c3OC)n2C)n(CC)c1=O :: 99%
CCn1c(=O)c2[nH]c(/C=C/c3ccc(OC)c(C)c3OC)nc2n(CC)c1=O :: 84%
CCn1c(=O)c2c(nc(/C=C/c3ccc4c(c3)OCO4)n2C)n(CC)c1=O :: 96%
COc1ccc(/C=C/c2nc3c([nH]2)c(=O)n(C)c(=O)n3C)c(OC)c1OC :: 87%

API: the following record is the query input.
Q: Recorded inhibition at 1 µM for CCn1c(=O)c2c(nc(/C=C/c3ccc4c(c3)OCCO4)n2C)n(CC)c1=O , please?
Ans: 90%

The values you see were collected from patent EP0590919A1.
